Record form. Attribute: T/C. Fill in for each entry.
Test system: B6C3F1 mice, B16 melanoma ip, median survival T/C
Assay: NCI In Vivo Anticancer Drug Screen. Data for tumor model B16 Melanoma (intraperitoneal) in B6C3F1 mice
Details: endpoint: median survival time; dose: 100.0 mg/kg/injection; schedule: Q01DX009 (ip); vehicle: saline with Tween-80; higher = longer survival
Inconclusive results and toxic doses are left out.

{"Compound": "CN(N=O)C(=O)NCCCCCNC(=O)N(C)N=O", "T/C": "110 % of control"}
{"Compound": "O=C1c2ccccc2-c2c(Br)c3ccccc3c(=O)n21", "T/C": "101 % of control"}
{"Compound": "CC(/C=C/c1ccccc1)=Nc1ccccc1", "T/C": "115 % of control"}
{"Compound": "N#CCc1c[nH]c2ccc([N+](=O)[O-])cc12", "T/C": "100 % of control"}
{"Compound": "Brc1ccc(C[N+]23CN4CN(CN(C4)C2)C3)cc1", "T/C": "108 % of control"}
{"Compound": "[O-][n+]1c(CN2CCCCC2)nc2cccc3c2c1-c1ccccc1-3", "T/C": "91 % of control"}
{"Compound": "CC(C)(C)OC(=O)NCC(=O)ON1C(=O)CCC1=O", "T/C": "91 % of control"}
{"Compound": "Cc1cc(Br)c2nsnc2c1[N+](=O)[O-]", "T/C": "103 % of control"}

Your task in this section: give T/C for each listed record.
1. Cc1ccc(N)c(N)c1
2. O=C(Nc1cccc(Cl)c1)C1CCCC1=Nc1cccc(Cl)c1 (stereo not given)
3. C=COC(=O)N(C)C

Result:
102 % of control
96 % of control
99 % of control

Would you mind giving T/C for every compound in the list below?
1. COc1cccc(C2NC(=O)c3c(n[nH]c3N)S2)c1O (stereo not given)
2. O=C(O)CCC(NC(=O)c1ccccc1)C(=O)O (stereo not given)
3. CC(C)(C)OC(=O)NCCCCC(NC(=O)OC(C)(C)C)C(=O)O (stereo not given)

Result:
1: 107 % of control; 2: 106 % of control; 3: 104 % of control
